Items are presented alongside their recorded 5 uM Avg Cell # Score.
- Test system: RAW 264.7 macrophages
- assay.remarks: SAFIRE macrophage assay: host toxicity (adherent macrophage count, morphology)
- Type: cell-based
- condition.set: 5 uM
- Procedure: In SAFIRE, we used MATLAB software to count the number of macrophages that remain adherent and retain the red fluorescence of MitoTracker, an indicator of voltage across the mitochondrial inner membrane. […] Non-toxic analogs that reduced bacterial load by at least 60% at 5 µM and 25 µM in SAFIRE, as compared with DMSO, progressed and were evaluated in SAFIRE across eight or more concentrations, ranging from 0.001 µM to 50 µM (n = 2). […]

Look over these answered cases.
CN1CCN(CC(O)COc2ccc(Cl)c(Cl)c2)CC1=O (stereo not drawn)    116
OC(COc1ccc(Cl)c(Cl)c1)CN1CCN(C2CCOC2)CC1 (stereo not drawn)    96
OC(COc1ccc2ccccc2c1)CN1CCC(Nc2nccc(C(F)(F)F)n2)CC1 (stereo not drawn)    87

Request: Give 5 uM Avg Cell # Score for OC(COc1ccccc1)CN1CCC(Nc2ncccn2)CC1 (stereo not drawn)
Result: 69

Request: Identify the reported 5 uM Avg Cell # Score for the following entry. OC(CNCc1csc(Cl)c1)COc1ccc(Cl)c(Cl)c1 (stereo not drawn)
Result: 95

Request: Give recorded 5 uM Avg Cell # Score. NCC1CCN(CC(O)COc2cc(Cl)cc(Cl)c2)C1 (stereo not drawn)
Result: 143

Request: Indicate the recorded 5 uM Avg Cell # Score value for this compound: OC(COc1ccc(F)cc1F)CN1CCC(Nc2nccc(C(F)(F)F)n2)C1 (stereo not drawn)
Result: 89

Request: Name the recorded 5 uM Avg Cell # Score of the item COc1ccc(OCC(O)CN2CCC(Nc3nccc(C(F)(F)F)n3)C2)cc1 (stereo not drawn) in your answer.
Result: 74

Request: Check the records and state 5 uM Avg Cell # Score for NC1CCN(CC(O)COc2ccc3ccccc3c2)CC1 (stereo not drawn)
Result: 103

Request: Determine from records and report 5 uM Avg Cell # Score for N[C@H]1CC[C@@H](N2CC(COc3cc(Cl)cc(Cl)c3)OC2=O)CC1 (stereo partly drawn)
Result: 163

Request: Report 5 uM Avg Cell # Score, nothing else, for this compound: CC(=O)NC1CCN(CC(O)COc2ccc(Cl)c(Cl)c2)C1 (stereo not drawn)
Result: 79

Request: Look up and state reported 5 uM Avg Cell # Score for OC(COc1ccc(Cl)c(Cl)c1)CN1CC2CCC1CO2 (stereo not drawn)
Result: 117

Request: Kindly indicate its recorded 5 uM Avg Cell # Score. Item: NC1CCN(CC(O)COc2ccc(F)cc2F)C1 (stereo not drawn)
Result: 109

Request: Please list 5 uM Avg Cell # Score recorded for the compound CN(CC(O)COc1ccc(Cl)c(Cl)c1)C1CCOC1 (stereo not drawn)
Result: 81

Request: Name the recorded 5 uM Avg Cell # Score of the item CN(C)CC1COCCN1CC(O)COc1ccc(Cl)c(Cl)c1 (stereo not drawn) in your answer.
Result: 104

Request: Given OC(COc1cccc(Br)c1)CN1CCC(Nc2nccc(C(F)(F)F)n2)CC1 (stereo not drawn) , respond with its 5 uM Avg Cell # Score.
Result: 90

Request: Return the recorded 5 uM Avg Cell # Score value; entry: OC(COc1c(Cl)cccc1Cl)CN1CCC(Nc2nccc(C(F)(F)F)n2)C1 (stereo not drawn)
Result: 93

Request: Output measured 5 uM Avg Cell # Score for this item: OC(COc1ccc(Cl)c(Cl)c1)CN1CC2CCC(C1)O2 (stereo not drawn)
Result: 108

Request: Name the recorded 5 uM Avg Cell # Score of the item NC1CCN(CC(O)COc2ccc(Cl)cc2Cl)C1 (stereo not drawn) in your answer.
Result: 105

Request: Give the reported value of 5 uM Avg Cell # Score for this record: OC(COc1ccccc1)CN1CCC(Nc2nccc(C(F)(F)F)n2)CC1 (stereo not drawn)
Result: 86

Request: Give reported 5 uM Avg Cell # Score value for NC1CCN(CC(O)COc2ccccc2)C1 (stereo not drawn)
Result: 128

Request: Dear colleague, please send me the reported 5 uM Avg Cell # Score for OC(COc1ccc(Cl)c(Cl)c1)CN1CCCNCC1 (stereo not drawn) when you can.
Result: 94

Request: // Input: CNC1CCN(C[C@@H](O)COc2ccc(Cl)c(Cl)c2)C1 (stereo partly drawn) . Output its 5 uM Avg Cell # Score only.
Result: 101

Request: Could you please provide reported 5 uM Avg Cell # Score for CSc1ccc(OCC(O)CN2CCC(Nc3nccc(C(F)(F)F)n3)CC2)cc1 (stereo not drawn) ? Thanks!
Result: 121

Request: Given NC1CCN(CC(O)COc2ccc(F)c(F)c2)C1 (stereo not drawn) , respond with its 5 uM Avg Cell # Score.
Result: 108

Request: Answer with reported 5 uM Avg Cell # Score of CCc1ccc(OCC(O)CN2CCC(Nc3nccc(C(F)(F)F)n3)CC2)cc1 (stereo not drawn)
Result: 71

Request: Tell us which 5 uM Avg Cell # Score value is on record for CC(=O)N(CCNc1nccc(C(F)(F)F)n1)CC(O)COc1ccc(Cl)c(Cl)c1 (stereo not drawn)
Result: 62

Request: Answer with reported 5 uM Avg Cell # Score of OC(CNC1CCNCC1)COc1ccc(Cl)cc1Cl (stereo not drawn)
Result: 109

----------
- Tested on: S. Typhimurium SL1344 (sifB::gfp) in RAW 264.7 macrophages
- assay.remarks: SAFIRE macrophage assay: intracellular bacterial load (GFP signal within macrophages)
- Type: cell-based, Salmonella enterica serotype Typhimurium
- condition.set: 5 uM compound; n=1; DMSO solvent control = 98, rifampicin 2 μg/mL = 65
Documented 5 uM Avg Antibacterial Score across a set of compounds
Form: value (number only, do not type unit).

Known 5 uM Avg Antibacterial Score results, listed for orientation:
O[C@@H](COc1ccc(Cl)c(Cl)c1)CN1CCCC1    89
OC(COc1cc(Cl)cc(Cl)c1)CN1CCCC1 (stereo not drawn)    93
OC(CN[C@H]1[C@@H]2CNC[C@@H]21)COc1ccc(Cl)c(Cl)c1 (stereo partly drawn)    53
NCCC1CCN(CC(O)COc2cc(Cl)cc(Cl)c2)CC1 (stereo not drawn)    20

Request: Assign 5 uM Avg Antibacterial Score to the following record: `N[C@H]1CCN(C[C@@H](O)COc2ccc(Cl)c(Cl)c2)C1`
Result: 29

Request: Please look at this compound and report its 5 uM Avg Antibacterial Score: OC(COc1cc(Cl)cc(Cl)c1)CN1CCC(n2ccnc2)CC1 (stereo not drawn)
Result: 40

Request: Fill in 5 uM Avg Antibacterial Score for record NC1CCN(CC(O)COc2ccccc2C(F)(F)F)CC1 (stereo not drawn)
Result: 47

----------
25 uM Avg Cell # Score: recorded values
- Test system: RAW 264.7 macrophages
- assay.remarks: SAFIRE macrophage assay: host toxicity (adherent macrophage count, morphology)
- Format: cell-based
- condition.set: 25 uM
- Protocol: In SAFIRE, we used MATLAB software to count the number of macrophages that remain adherent and retain the red fluorescence of MitoTracker, an indicator of voltage across the mitochondrial inner membrane. […] Non-toxic analogs that reduced bacterial load by at least 60% at 5 µM and 25 µM in SAFIRE, as compared with DMSO, progressed and were evaluated in SAFIRE across eight or more concentrations, ranging from 0.001 µM to 50 µM (n = 2). […]
Form field (numeric): enter value without unit.

CC(=O)N(C)C1CCN(CC(O)COc2ccc(Cl)c(Cl)c2)CC1 (stereo not drawn)    82

Request: Identify measured 25 uM Avg Cell # Score corresponding to OC(COc1ccc(Cl)c(Cl)c1)CN1CCCNCC1 (stereo not drawn)
Result: 120

Request: Please look at this molecule and report its 25 uM Avg Cell # Score: CN(C)C1CCN(CC(O)COc2ccc(Cl)c(Cl)c2)C1 (stereo not drawn)
Result: 113

Request: Answer with the recorded 25 uM Avg Cell # Score of CN(CC(O)COc1ccc(Cl)c(Cl)c1)C1CCNC1 (stereo not drawn) only.
Result: 117

----------
- System: S. Typhimurium SL1344 (sifB::gfp) in RAW 264.7 macrophages
- assay.remarks: SAFIRE macrophage assay: intracellular bacterial load (GFP signal within macrophages)
- Assay type: cell-based, Salmonella enterica serotype Typhimurium
- condition.set: 25 uM; 'Toxic' given instead of a score
endpoint: 25 uM Avg Antibacterial Score

Below are worked cases with known answers.
OC(COc1ccc(F)c(F)c1)CN1CCC(Nc2ncccn2)CC1 (stereo not shown)    107
OC(COc1ccc(Cl)c(Cl)c1)CN1CCC(NC2CC2)C1 (stereo not shown)    41
COCC1CCCN1CC(O)COc1ccc(Cl)c(Cl)c1 (stereo not shown)    32
OC(COc1ccc(F)cc1F)CN1CCC(Nc2nccc(C(F)(F)F)n2)CC1 (stereo not shown)    13

Request: Query 25 uM Avg Antibacterial Score for O=C(CCOc1ccc(Cl)c(Cl)c1)N1CCC(Nc2nccc(C(F)(F)F)n2)C1 (stereo not shown)
Result: 104

Request: Determine from records and report 25 uM Avg Antibacterial Score for OC(COc1ccccc1C(F)(F)F)CN1CCC(Nc2nccc(C(F)(F)F)n2)CC1 (stereo not shown)
Result: Toxic

Request: Provide measured 25 uM Avg Antibacterial Score value, entry: CNC1CCN(CC(O)COc2ccc(F)c(F)c2)C1 (stereo not shown)
Result: 58

Request: In one line, give reported 25 uM Avg Antibacterial Score of the entry `c1ccc2c(CN3CCNCC3)cccc2c1` .
Result: 59

Request: Write down 25 uM Avg Antibacterial Score measured for item OC(COc1ccccc1)CN1CCC(Nc2ncccn2)CC1 (stereo not shown)
Result: 81

Request: Recall and state the measured 25 uM Avg Antibacterial Score for OC(COc1c(Cl)cccc1Cl)CN1CCC(Nc2nccc(C(F)(F)F)n2)CC1 (stereo not shown) .
Result: Toxic

Data origin: paper PMC10746280
